- measured.target: T1, TJP3_3, O95049
- T1 sequence (O95049 375-456, limits assumed, looked up): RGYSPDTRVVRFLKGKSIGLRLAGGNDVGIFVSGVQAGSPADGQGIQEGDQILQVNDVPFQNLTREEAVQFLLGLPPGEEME
- test.details: holdup assay
- Set-up: key: below the threshold = too weak to quantify, mostly under pKd 3.1 to 4
- test.conditions: plain residues with an end cap or a label only (N-terminal biotin on a linker: ado-ado)
observed.property: pKd

>>> print(df.to_string())
                             binder   experimental_value
 0         EPQYQPGENL [SRC, P12931]  below the threshold
 1        QKAPTKEFYA [SDC2, P34741]  below the threshold
 2       VLYPREGTEV [FOXI1, Q12951]                 3.48
 3  PSVGSKKTVL [REELD1, A0A1B0GV85]  below the threshold
 4       AEASVACSLC [PTGIR, P43119]  below the threshold
 5        SRSVVESDEL [MYPN, Q86TC9]  below the threshold
 6     SFISKKEWYV [NECTIN1, Q15223]                  4.1
 7      SLNANEVEWF [RNF130, Q86XS8]                  3.6
 8      QRPYRRGSEI [KCNJ18, B7U540]  below the threshold
 9       RQKEVRESKC [SCN8A, Q9UQD0]  below the threshold
10      AAVENKVTDL [PLXNB1, O43157]  below the threshold
11     PSHPRLQTHV [KIRREL2, Q6UWL6]  below the threshold
12     IDESKKEWLI [CNTNAP2, Q9UHC6]  below the threshold
13       LESTTVGTSV [KARS1, Q15046]  below the threshold
14       GEDRSPPTAL [MKNK1, Q9BUB5]  below the threshold
15       SPDRDRESIV [SCN5A, Q14524]  below the threshold
16       EDGESWEYQI [TRPV6, Q9H1D0]  below the threshold
17       ARSAAASNYV [CLDN4, O14493]                 3.65
18      NIAESLESLV [PTPRZ1, P23471]  below the threshold
19     VKRNSKETVV [MARCHF3, Q86UD3]  below the threshold
20     DDASLPVSDV [PLEKHA1, Q9HB21]  below the threshold
21       AQRARSPSDV [GPR12, P47775]  below the threshold
22        STKRKLASAV [NCF1, P14598]  below the threshold
23       DGVNEKVSCV [HTR2A, P28223]  below the threshold
24      NNNVVKVDSV [MTNR1A, P48039]  below the threshold
25       NVYGIESVKI [GRIA2, P42262]  below the threshold
26       GTGYDRKDYV [CLDN3, O15551]                 3.73
27       ILRKSTTTTV [PRR16, Q569H4]  below the threshold
28     ARGPPRESEV [FAM110D, Q8TAY7]  below the threshold
29        LAHVKHKEQI [AQP3, Q92482]  below the threshold
30        KPGKGSETVV [FZD4, Q9ULV1]  below the threshold
31     EDPRVEVTQF [SLC22A9, Q8IVM8]  below the threshold
32     SVTSERETNI [SLC16A7, O60669]  below the threshold

Data origin: paper PMC9482650
